This collection of values is drawn from paper PMC7509492.

# protocol-description: CellTiter-Blue cell viability assay, HBEC-5i
# Assay type: cell-based, human
# conditions: human, HBEC-5i cells, Table 1, peptide 0.01-100 μM, mean ± SD, triplicates of three independent experiments, read-out: Cytotoxicity HBEC-5i cells IC50
Ends that are not written are not given here.
For each record, write down the corresponding CC50 at 24 h.

Given the substance AGILKRW-NH2 [PepH3] , what is its reported CC50 at 24 h?
> 200 µM

Endpoint output: CC50 at 24 h of SGTQEEY-NH2 [PepNeg] . Value?
> 200 µM

====

# System: HBEC-5i cells (in vitro BBB model)
# protocol-description: In vitro BBB translocation across HBEC-5i transwell monolayer
# Assay type: in vitro ADME, human
# conditions: labeled peptide, quantified by fluorescence emission; HBEC-5i monolayer on PET transwell 1.0 μm pores, apical to basolateral, 10 μM, 24 h, DMEM:F12 without phenol red; mean ± SD, triplicates of three independent experiments
# Experimental: HBEC-5i cells were allowed to grow until confluence in a gelatin-coated T-flask. […] FIGURE 1 Scheme of an in vitro BBB transwell membrane system. […] Then, 10 μM of peptides are added to the apical side, and the translocation measured as the amount detected on the basolateral side. The translocation of peptides labeled with different fluorophores was determined by fluorescence emission. After 24 h incubation, samples from the apical and basolateral side were collected and analyzed. […]
Peptide text beside a SMILES is read from it. * marks the point of attachment. RhodamineB = CCN(CC)c1ccc2c(-c3ccccc3C(=O)*)c3ccc(=[N+](CC)CC)cc-3oc2c1; X1 = CC[N+]1=C(C=CC=C2N(CCCCCC(=O)*)c3ccccc3C2(C)C)C(C)(C)c2ccccc21; 5FAM = O=C1OC2(c3ccc(O)cc3Oc3cc(O)ccc32)c2ccc(C(=O)*)cc21
Assignment: determine reported Translocation (%) for the given compounds.
Your answer should be a plain number; it is taken to be in %.

Endpoint output: Translocation (%) of CC[C@H](C)[C@H](NC(=O)CNC(=O)[C@H](C)NC(=O)c1ccc2c(c1)C(=O)OC21c2ccc(O)cc2Oc2cc(O)ccc21)C(=O)N[C@@H](CC(C)C)C(=O)N[C@@H](CCCCN)C(=O)N[C@@H](CCCNC(=N)N)C(=O)N[C@@H](Cc1c[nH]c2ccccc12)C(N)=O [CF-PepH3] (5FAM-AGILKRW-NH2) . Value?
57.09

Consider the compound CC[C@H](C)[C@H](NC(=O)CNC(=O)[C@H](C)NC(=O)CCCCCN1C(=CC=CC2=[N+](CC)c3ccccc3C2(C)C)C(C)(C)c2ccccc21)C(=O)N[C@@H](CC(C)C)C(=O)N[C@@H](CCCCN)C(=O)N[C@@H](CCCNC(=N)N)C(=O)N[C@@H](Cc1c[nH]c2ccccc12)C(N)=O [Q570-PepH3] (X1-AGILKRW-NH2) and give its measured Translocation (%).
59.60

Entry under review: CCN(CC)c1ccc2c(-c3ccccc3C(=O)N[C@@H](CO)C(=O)NCC(=O)N[C@H](C(=O)N[C@@H](CCC(N)=O)C(=O)N[C@@H](CCC(=O)O)C(=O)N[C@@H](CCC(=O)O)C(=O)N[C@@H](Cc3ccc(O)cc3)C(N)=O)[C@@H](C)O)c3ccc(=[N+](CC)CC)cc-3oc2c1 [RhB-PepNeg] (RhodamineB-SGTQEEY-NH2) . Reported Translocation (%)?
51.57
